Below, each entry is listed alongside its reported log10 of IC50.
Molecular target: Aldo-keto reductase family 1 member C2 (Homo sapiens, UniProt P52895)
Sequence (P52895 whole entry): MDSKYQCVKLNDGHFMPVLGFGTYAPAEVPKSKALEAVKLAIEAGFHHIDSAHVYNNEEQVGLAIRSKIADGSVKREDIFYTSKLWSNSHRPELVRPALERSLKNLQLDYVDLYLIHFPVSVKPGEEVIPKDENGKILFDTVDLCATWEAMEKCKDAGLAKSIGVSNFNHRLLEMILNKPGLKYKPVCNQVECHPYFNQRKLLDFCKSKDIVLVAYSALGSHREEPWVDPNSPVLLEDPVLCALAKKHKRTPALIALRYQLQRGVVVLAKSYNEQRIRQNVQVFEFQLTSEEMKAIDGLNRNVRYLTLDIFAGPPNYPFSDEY
Assay: Inhibition of recombinant AKR1C2 assessed as NADP+ dependent oxidation of S-tetralol by fluorescence assay
The base-10 logarithm of IC50, taken with IC50 in µM, is what appears here.

chem smiles	log10 of IC50
CC(=O)c1ccc(Nc2ccc(C(C)=O)cc2C(=O)O)cc1	1.27
COc1ccc(Nc2ccccc2C(=O)O)c([N+](=O)[O-])c1	-0.04
O=C(O)c1ccc(Nc2cccc(C(=O)O)c2)cc1	1.30

Entry O=C(O)c1ccccc1Nc1ccc(Cl)cc1 has what log10 of IC50?
-0.39

Entry COc1ccc(Nc2ccc(C(C)=O)cc2C(=O)O)c([N+](=O)[O-])c1 has what log10 of IC50?
0.59

Entry COc1ccc(C(=O)O)c(Nc2ccc(Cl)cc2)c1 has what log10 of IC50?
-0.54

Entry CC(=O)c1ccc(Nc2ccc(C(=O)O)cc2)c(C(=O)O)c1 has what log10 of IC50?
1.28

Entry CC(=O)c1ccc(Nc2ccc([N+](=O)[O-])cc2)c(C(=O)O)c1 has what log10 of IC50?
0.12

Entry CC(C)(C)c1ccc(Nc2ccc(C(=O)O)cc2)cc1 has what log10 of IC50?
1.01

Entry O=C(O)c1cccc(Nc2ccccc2C(=O)O)c1 has what log10 of IC50?
0.62

Entry O=C(O)c1cccc(Nc2cccc([N+](=O)[O-])c2)c1 has what log10 of IC50?
1.29

Entry Cc1cccc(Nc2ccccc2C(=O)O)c1 has what log10 of IC50?
-0.42

Entry O=C(O)c1ccc(Nc2cccc(C(F)(F)F)c2)cc1 has what log10 of IC50?
1.05

Entry CC(=O)c1ccc(Nc2ccc(C)cc2)c(C(=O)O)c1 has what log10 of IC50?
0.92

Entry O=C(O)c1cccc(Nc2ccc([N+](=O)[O-])cc2OC(F)(F)F)c1 has what log10 of IC50?
0.25

Entry COc1ccc(C(=O)O)c(Nc2cc(C)cc(C)c2)c1 has what log10 of IC50?
0.51

Entry COc1ccc(C(=O)O)c(Nc2ccc(C)cc2)c1 has what log10 of IC50?
0.05

Entry CC(=O)c1ccc(Nc2ccccc2)c(C(=O)O)c1 has what log10 of IC50?
0.58

Entry COc1cc(Nc2cccc(C(=O)O)c2)cc(OC)c1 has what log10 of IC50?
1.75

Entry COc1cc(Nc2ccc(C(=O)O)cc2)cc(OC)c1 has what log10 of IC50?
1.84
